Listing of entries alongside the reported IC50.
Biological target: CFTR (Homo sapiens)
Construct: expressed in transfected cells
Sequence (P13569 whole entry): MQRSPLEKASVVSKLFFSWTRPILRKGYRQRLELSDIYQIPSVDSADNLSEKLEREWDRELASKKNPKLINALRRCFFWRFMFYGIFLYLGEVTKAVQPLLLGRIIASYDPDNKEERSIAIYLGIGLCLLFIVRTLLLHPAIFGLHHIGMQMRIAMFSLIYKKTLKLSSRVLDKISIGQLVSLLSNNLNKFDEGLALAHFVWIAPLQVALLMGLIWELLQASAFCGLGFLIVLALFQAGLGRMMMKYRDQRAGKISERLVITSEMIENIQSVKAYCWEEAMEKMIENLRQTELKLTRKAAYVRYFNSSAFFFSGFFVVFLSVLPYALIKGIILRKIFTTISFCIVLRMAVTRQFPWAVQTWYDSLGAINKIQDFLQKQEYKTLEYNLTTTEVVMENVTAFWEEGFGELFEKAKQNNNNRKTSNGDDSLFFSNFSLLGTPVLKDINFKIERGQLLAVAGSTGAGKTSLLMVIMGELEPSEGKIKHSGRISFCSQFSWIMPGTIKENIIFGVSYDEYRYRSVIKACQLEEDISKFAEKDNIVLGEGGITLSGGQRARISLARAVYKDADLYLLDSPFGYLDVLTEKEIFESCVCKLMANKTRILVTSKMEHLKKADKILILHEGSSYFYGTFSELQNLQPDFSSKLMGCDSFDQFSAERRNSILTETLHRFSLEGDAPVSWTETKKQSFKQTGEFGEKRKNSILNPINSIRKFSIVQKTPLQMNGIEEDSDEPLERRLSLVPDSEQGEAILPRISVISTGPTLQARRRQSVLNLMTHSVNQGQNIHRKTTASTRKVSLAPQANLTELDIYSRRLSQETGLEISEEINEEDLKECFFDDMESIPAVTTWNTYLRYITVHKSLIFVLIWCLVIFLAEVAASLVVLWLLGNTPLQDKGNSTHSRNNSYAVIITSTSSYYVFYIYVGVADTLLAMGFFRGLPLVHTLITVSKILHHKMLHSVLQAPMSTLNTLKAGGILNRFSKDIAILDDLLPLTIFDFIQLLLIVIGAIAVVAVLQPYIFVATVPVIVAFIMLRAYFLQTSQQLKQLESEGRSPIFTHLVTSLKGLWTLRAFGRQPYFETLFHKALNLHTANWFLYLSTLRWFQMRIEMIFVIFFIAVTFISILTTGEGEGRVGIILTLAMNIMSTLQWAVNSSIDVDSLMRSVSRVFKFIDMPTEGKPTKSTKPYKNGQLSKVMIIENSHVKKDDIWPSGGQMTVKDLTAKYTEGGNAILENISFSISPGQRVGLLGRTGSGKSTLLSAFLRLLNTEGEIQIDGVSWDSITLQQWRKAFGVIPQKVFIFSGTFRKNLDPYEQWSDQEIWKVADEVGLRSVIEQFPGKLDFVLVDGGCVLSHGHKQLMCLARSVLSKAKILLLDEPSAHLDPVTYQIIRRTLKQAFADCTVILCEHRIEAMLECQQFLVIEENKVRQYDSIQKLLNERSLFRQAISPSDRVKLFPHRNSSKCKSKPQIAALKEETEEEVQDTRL
Assay: IonWorks Quattro assay (CFTR Inhibitor Assay), whole-cell planar patch clamp
Format: cell-based
Conditions: inward current (−100 mV); CHO cells stably expressing WT-CFTR; CFTR activated by 10 μM forskolin; test compound incubated 10 min
Output spec: scalar in µM, unitless text.

Known IC50 results, listed for orientation:
>>> result_number("Cc1csc(-c2c3c(=O)n(C)c(=O)n(C)c3c3n2C[C@@H](CN2CCOC2=O)S[C@@H]3c2ccc(Cl)o2)n1 (single isomer, unassigned) [Example 30a]")
0.16
>>> result_number("Cn1c(=O)c2c(-c3ccccc3)n3c(c2n(C)c1=O)C(c1cccc(Cl)c1)SCC3 (racemic)")
11.1
>>> result_number("Cn1c(=O)c2c(-c3ccccc3)n3c(c2n(C)c1=O)C(c1ccc(Cl)o1)SC(CO)C3 (single isomer, unassigned) [Example 12.a]")
0.2

Returns the measured IC50 for the input compound. Input: Cc1nc(-c2c3c(=O)n(C)c(=O)n(C)c3c3n2CCC[C@H]3c2nc(Cl)cs2)cs1 (single isomer, unassigned)
0.09

And for Cc1csc(-c2c3c(=O)n(C)c(=O)n(C)c3c3n2C[C@@H](Cn2ccnc2)S[C@@H]3c2ccc(Cl)o2)n1 (single isomer, unassigned) [Example 28a] ?
0.11

And for Cn1c(=O)c2c(-c3nc(CO)cs3)n3c(c2n(C)c1=O)[C@H](c1ccc(Cl)o1)SCC3 (single isomer, unassigned) ?
0.1
